test: Apparent permeability of the compound at pH 7.4; format: physicochemical; conditions: not told
Reported endpoint: Papp (×10⁻⁶ cm/s)

- Record smiles: "Cc1c(Sc2cccc(C(=O)O)c2)c2ccc(Cl)cc2n1-c1cnn(C)c1"
  Units: "×10⁻⁶ cm/s"
  Papp: 6.4
- Record smiles: "Cc1c(Sc2cccc(C(=O)O)n2)c2ccc(Cl)cc2n1C"
  Units: "×10⁻⁶ cm/s"
  Papp: 3.2
- Record smiles: "Cc1c(Sc2cccc(C(=O)O)n2)c2ccc(Cl)cc2n1-c1ccccc1"
  Units: "×10⁻⁶ cm/s"
  Papp: 15.5
- Record smiles: "Cc1c(Sc2cccc(C(=O)O)n2)c2ccc(Cl)cc2n1-c1cnn(C)c1"
  Units: "×10⁻⁶ cm/s"
  Papp: 2.3

A. Cc1[nH]c2cc(Cl)ccc2c1Sc1cccc(C(=O)O)n1
B. Cc1c(Sc2cccc(C(=O)O)n2)c2ccc(Cl)cc2n1C1CCCC1
**Q:** Compare A and B and name the one whose reported Papp is smaller. API: response body contains the label of the selected item.
**A:** A

* * *

# key: entry, value: IC50
target: Autotaxin (Homo sapiens, UniProt Q13822); experiment: Inhibition of ATX in human MDA-MB-435S cells using lysophosphatidyl choline as substrate preincubated for 15 mins followed by substrate addition measured after 90 mins; type: cell-based

- Record smiles: "Cc1c(Sc2cccc(C(=O)O)c2)c2ccc(Cl)cc2n1-c1cnn(C)c1"
  IC50: "< 0.3 µM"
- Record smiles: "Cc1c(Sc2cccc(C(=O)O)c2)c2ccc(Cl)cc2n1-c1ccccc1"
  IC50: "< 0.3 µM"

Now look at this entry.
**Q:** Give Autotaxin (Homo sapiens, UniProt Q13822) IC50 for Cc1c(Sc2cccc(C(=O)O)n2)c2ccc(Cl)cc2n1-c1cnn(C)c1
**A:** < 0.3 µM

* * *

test: Kinetic aqueous solubility by CLND method; assay type: physicochemical; details: read-out: Kinetic_solubility
Reported endpoint: solubility kinetic (µM)

Study these solved cases before continuing.
- Record smiles: "Cc1c(Sc2cccc(C(=O)O)c2)c2ccc(Cl)cc2n1-c1cnn(C)c1"
  solubility kinetic (µM): 556
- Record smiles: "Cc1c(Sc2cccc(C(=O)O)n2)c2ccc(Cl)cc2n1C"
  solubility kinetic (µM): 300
- Record smiles: "Cc1c(Sc2cccc(C(=O)O)n2)c2ccc(Cl)cc2n1-c1cnn(C)c1"
  solubility kinetic (µM): 377

a. Cc1c(Sc2cccc(C(=O)O)n2)c2ccc(Cl)cc2n1-c1ccccc1
b. Cc1c(Sc2cccc(C(=O)O)n2)c2ccc(Cl)cc2n1C1CCCC1
**Q:** Quick check, higher solubility kinetic between a and b ? API: response body contains the label of the selected item.
**A:** a
(a: 485 µM, b: 336 µM)

* * *

# key: entry, value: IC50
target: Autotaxin (Homo sapiens); assay: Inhibition of human ATX expressed in HEK293 Flp-In cells using LPC as substrate measured every 30 sec for 90 mins by fluorescence assay; assay type: cell-based; conditions: read-out: IC50

**Q:** What IC50 value was documented for this compound, Cc1[nH]c2cc(Cl)ccc2c1Sc1cccc(C(=O)O)n1 ?
**A:** 25 nM

**Q:** For Cc1c(Oc2cccc(C(=O)O)c2)c2ccccc2n1-c1cnn(C)c1 then?
**A:** > 30000 nM

**Q:** For Cc1c(SCCCC(=O)O)c2ccc(Cl)cc2n1-c1cnn(C)c1 then?
**A:** > 30000 nM

**Q:** For Cc1cc2ccc(Cl)cc2n1-c1cnn(C)c1 then?
**A:** > 30000 nM

**Q:** For Cc1[nH]c2ccccc2c1Sc1cccc(C(=O)O)n1 then?
**A:** > 30000 nM

**Q:** For Cc1[nH]c2cc(Cl)ccc2c1Sc1cccc(C(=O)O)c1 then?
**A:** 747 nM

**Q:** For Cc1c(Sc2cccc(C(=O)O)c2)c2ccc(Cl)cc2n1C1CCCC1 then?
**A:** 20000 to 25000 nM

* * *

target: Autotaxin (Homo sapiens); test: Inhibition of human ATX expressed in HEK293 Flp-In cells using LPC as substrate measured every 30 sec for 90 mins by fluorescence assay; assay type: cell-based; conditions: read-out: IC50
pIC50: −log10 of the molar value.
Reported endpoint: pIC50

- Record smiles: "Cc1c(Oc2cccc(C(=O)O)c2)c2ccc(Cl)cc2n1-c1cnn(C)c1"
  pIC50: 6.14
- Record smiles: "Cc1c(Sc2cccc(C(=O)O)n2)c2cc(Cl)ccc2n1-c1cnn(C)c1"
  pIC50: 6.59
- Record smiles: "Cc1c(Sc2cccc(C(=O)O)c2)c2ccc(Cl)cc2n1C"
  pIC50: 5.92
- Record smiles: "Cc1c(Sc2cccc(C(=O)O)n2)c2ccc(F)cc2n1-c1ccn(C)n1"
  pIC50: 6.46
- Record smiles: "Cc1c(Sc2cccc(C(=O)O)n2)c2ccc(Cl)cc2n1C"
  pIC50: 7.51
- Record smiles: "COc1ccc2c(Sc3cccc(C(=O)O)n3)c(C)n(-c3cnn(C)c3)c2c1"
  pIC50: 6.91

A. Cc1ccc2c(Sc3cccc(C(=O)O)n3)c(C)n(-c3cnn(C)c3)c2c1
B. Cc1c(Sc2cccc(C(=O)O)n2)c2ccccc2n1-c1cnn(C)c1
**Q:** Compare A and B and name the one whose reported pIC50 is smaller. API: response body contains the label of the selected item.
**A:** B

1. Cc1c(Cc2cccc(C(=O)O)n2)c2ccc(Cl)cc2n1-c1cnn(C)c1
2. Cc1c(Sc2cccc(C(=O)O)c2)c2ccc(Cl)cc2n1-c1cnn(C)c1
**Q:** Quick check, higher pIC50 between 1 and 2 ? API: response body contains the label of the selected item.
**A:** 2

* * *

test: Lipophilicity, log D of the compound at pH 7.4 by chromatographic method; format: physicochemical; settings: buffer
Reported endpoint: chromatographic logD

Study these solved cases before continuing.
- Record smiles: "Cc1c(Sc2cccc(C(=O)O)c2)c2ccc(Cl)cc2n1-c1cnn(C)c1"
  chromatographic logD: 3.36
- Record smiles: "Cc1[nH]c2cc(Cl)ccc2c1Sc1cccc(C(=O)O)n1"
  chromatographic logD: 2.19
- Record smiles: "Cc1c(Sc2cccc(C(=O)O)n2)c2ccc(Cl)cc2n1C1CCCC1"
  chromatographic logD: 4.05
- Record smiles: "Cc1c(Sc2cccc(C(=O)O)n2)c2ccc(Cl)cc2n1C"
  chromatographic logD: 2.68

P. Cc1c(Sc2cccc(C(=O)O)n2)c2ccc(Cl)cc2n1-c1cnn(C)c1
Q. Cc1c(Sc2cccc(C(=O)O)n2)c2ccc(Cl)cc2n1-c1ccccc1
**Q:** Quick check, higher chromatographic logD between P and Q ? API: response body contains the label of the selected item.
**A:** Q
(Q: 4.3, P: 2.7)

* * *

molecular target: Autotaxin (Homo sapiens, UniProt Q13822); assay: Inhibition of human ATX expressed in HEK293 Flp-In cells using LPC as substrate measured every 30 sec for 90 mins by fluorescence assay; format: cell-based; details: read-out: IC50
pIC50: −log10 of the molar value.
Reported endpoint: pIC50

- Record smiles: "Cc1c(Sc2cccc(C(=O)O)c2)c2ccc(Cl)cc2n1-c1ccccc1"
  pIC50: 7.09

A. Cc1c(Cc2cccc(C(=O)O)c2)c2ccc(Cl)cc2n1-c1cnn(C)c1
B. Cc1c(Sc2cccc(C(=O)O)n2)c2ccc(Cl)cc2n1-c1cnn(C)c1
**Q:** Quick check, higher pIC50 between A and B ? API: response body contains the label of the selected item.
**A:** B

* * *

# key: entry, value: pIC50
target: Autotaxin (Homo sapiens, UniProt Q13822); assay: Inhibition of human ATX expressed in HEK293 Flp-In cells using LPC as substrate measured every 30 sec for 90 mins by fluorescence assay; type: cell-based; settings: read-out: IC50
pIC50: −log10 of the molar value.

- Record smiles: "Cc1c(Cc2cccc(C(=O)O)n2)c2ccccc2n1-c1cnn(C)c1"
  Assay target: "Autotaxin (Homo sapiens, UniProt Q13822)"
  Reading: "< 4.52"
- Record smiles: "Cc1c(Cc2cccc(C(=O)O)c2)c2ccccc2n1-c1cnn(C)c1"
  Assay target: "Autotaxin (Homo sapiens, UniProt Q13822)"
  Reading: "< 4.52"
- Record smiles: "Cc1c(Sc2cccc(C(=O)O)n2)c2ccccc2n1C"
  Assay target: "Autotaxin (Homo sapiens, UniProt Q13822)"
  Reading: "< 4.52"
- Record smiles: "Cc1c(Sc2cccc(C(=O)O)n2)c2c(Cl)cccc2n1-c1cnn(C)c1"
  Assay target: "Autotaxin (Homo sapiens, UniProt Q13822)"
  Reading: "< 4.52"
- Record smiles: "Cc1c(SCCCC(=O)O)c2ccccc2n1-c1cnn(C)c1"
  Assay target: "Autotaxin (Homo sapiens, UniProt Q13822)"
  Reading: "< 5.00"

**Q:** Give Autotaxin (Homo sapiens, UniProt Q13822) pIC50 for Cc1[nH]c2ccccc2c1Sc1cccc(C(=O)O)c1
**A:** < 4.52

**Q:** For Cc1c(Sc2cccc(C(=O)O)c2)c2ccccc2n1-c1ccccc1 then?
**A:** < 5.30

**Q:** For Cc1c(Sc2cccc(C(=O)O)n2)c2ccccc2n1-c1ccccc1 then?
**A:** < 4.52

**Q:** For Cc1cccc2c1c(Sc1cccc(C(=O)O)n1)c(C)n2-c1cnn(C)c1 then?
**A:** < 5.00

**Q:** For Cc1[nH]c2cc(F)ccc2c1Sc1cccc(C(=O)O)n1 then?
**A:** < 4.70

**Q:** For Cc1c(Sc2cccc(C(=O)O)n2)c2ccccc2n1C1CCCC1 then?
**A:** < 4.52

**Q:** For Cc1c(Sc2cccc(C(=O)O)n2)c2c(F)cccc2n1-c1ccn(C)n1 then?
**A:** 5.46 to 5.52
